Reference for the values: PubChem BioAssay (Tox21)

molecular target: Cytochrome P450 2C9 (Homo sapiens); experiment: Cytochrome P450 Family 2 Subfamily C Member 9 (CYP2C9) small molecule antagonists: luciferase reporter qHTS assay (AID 1671198); details: P450-Glo CYP2C9 enzyme assay, luciferin luminescence; series mostly up to 115 µM; note: nearly all actives have a fitted effect of over 50% in size
Records with an inconclusive call do not appear. Calls of active or inactive are those of the source. Calls come from the whole dose curve; as a rule, active = well fitted inhibition curve with a large enough effect in the repeat runs; inconclusive = weak or mixed curves; inactive = no such curve, though single readings can be large or run the other way.
Answer with one of the outcomes given here: active, inactive

Could you please tell me the result logged for O=C(O)c1cccc(C(=O)O)c1 in this assay?
inactive

Could you please tell me the result logged for Cc1cccc([N+](=O)[O-])c1C(=O)O in this assay?
inactive

Could you please tell me the result logged for CC[C@H]1CN2CCc3cc(OC)c(OC)cc3[C@@H]2C[C@@H]1C[C@H]1NCCc2cc(OC)c(OC)cc21 in this assay?
inactive

Could you please tell me the result logged for COc1ccc(COC(C)=O)cc1 in this assay?
inactive

Could you please tell me the result logged for c1ccc2cc3c(ccc4ccccc43)cc2c1 in this assay?
active

Could you please tell me the result logged for CC(C(O)c1ccc(O)cc1)N1CCC(Cc2ccccc2)CC1 (stereo not drawn) in this assay?
inactive

Could you please tell me the result logged for C1COC(NC(C2CC2)C2CC2)=N1 in this assay?
inactive

Could you please tell me the result logged for CC[C@@H](N)CO in this assay?
inactive
